Taken from PubChem BioAssay (NCI).

The entries below come with measured growth values attached.
- System: LOX IMVI melanoma
- ASSAY_INFO: NCI-60 one-dose screen, 48 h (100 = growth as untreated, 0 = no growth, -100 = all killed)
- PROTOCOL_CONDITIONS: 10 µM unless noted
About 83,000 compounds went through this panel and 20% of them were active in at least one assay; those are over-represented in the sample as a whole.
Numbers only; they are read as %.

Below: 5 molecules and their reported growth.
Lab book: growth of O=C(C(=O)c1cccnc1)c1cccnc1 noted as 100

Lab book: growth of COc1cccc(/C=N/N=C(N)N)c1 noted as 106

Lab book: growth of CCN(CC)CCNc1c(C)cc(CO)c(Cl)c1C noted as 98.8

Lab book: growth of CCN(CC)CCC(CNc1ccnc2cc(Cl)ccc12)c1ccc(O)cc1 (stereo unspecified) noted as 50.4

Lab book: growth of CCN(CC)CCCNc1cccc2c(C)cc(OC)nc12 noted as 105

Please turn your attention to the following entry.
Lab book: growth of Oc1ccc(CCCCCCc2ccc(O)cc2)cc1 noted as 53.3
